# PROTOCOL NOTES: refractive index (Na D-line) (dimensionless)
# CONDITION SUMMARY: 308.15 K; 101.33 kPa; Liquid; Standard Abbe refractometry
QUANTITY KIND: refractive index
One number for each entry.

Worked examples follow.
// refractive index value for CCCCCCCCCCC : 1.4095

// refractive index value for CCCCCCCCCC : 1.4052

// refractive index value for C1CC[C@H]2CCCC[C@H]2C1 [cis-decahydronaphthalene] : 1.4736

// refractive index value for CCCCCCCCC : 1.3983

For the next question, use this compound.
// refractive index value for C1CC[C@H]2CCCC[C@@H]2C1 [trans-decahydronaphthalene] : 1.4618

* * *

Assign viscosity to each entry below.
# CONDITION SUMMARY: 323.15 K; 100 kPa; Liquid; Capillary tube (Ostwald / Ubbelohde) method
Numbers only, in mPa·s.

// viscosity value for CCCCCCCCC [nonane] : 0.521

// viscosity value for CCCCCCCCCCC [undecane] : 0.749

// viscosity value for CCCCCCCCCC [decane] : 0.632

For the next question, use this compound.
// viscosity value for C1CC[C@H]2CCCC[C@@H]2C1 [trans-decahydronaphthalene] : 1.295
